- experimental-target: human Kv72+3 channels (Homo sapiens, UniProt O43525+O43526)
- Construct: expressed in transfected cells; host or cells: HEK293
- assay-comment: patch-clamp, HEK293 cell lines stably expressing human Kv7.2+3 channels
- Format: cell-based
- condition-info: conc. 0.03 μM, −30 mV, 20 ms; current relative to baseline current defined as 100%
metric-name: IK (%)

Challenge: Write down measured IK (%) (human Kv72+3 channels (Homo sapiens, UniProt O43525+O43526)) for this molecule. `CN(C)c1nc(NCc2ccc(F)cc2)ccc1NC(=O)Cc1ccc(F)c(F)c1`
Response given: 215

Challenge: Write down measured IK (%) (human Kv72+3 channels (Homo sapiens, UniProt O43525+O43526)) for this molecule. `CN(C)c1nc(NCc2ccc(F)cc2)ccc1NC(=O)Cc1ccc(C(F)(F)F)c(F)c1`
Response given: 162

Challenge: Write down measured IK (%) (human Kv72+3 channels (Homo sapiens, UniProt O43525+O43526)) for this molecule. `CN(C)c1nc(NCc2ccc(F)cc2)ccc1NC(=O)CC(C)(C)C`
Response given: 233

Challenge: Write down measured IK (%) (human Kv72+3 channels (Homo sapiens, UniProt O43525+O43526)) for this molecule. `CN(C)c1nc(NCc2ccc(F)cc2)ccc1NC(=O)CCc1cccc(F)c1`
Response given: 174
